# system-name: recombinant NS3 protease with the NS4A peptide cofactor … (molar ratio enzyme:cofactor 1:100) (hepatitis C virus genotype 1b)
# measurement-notes: cell-based or functional assay
Where no end group is shown, it is not given here. [ ]: non-standard residue; d: D form. Pro(1-NpCH2O) = Pro(4-R13), R13 = 1-NpCH2O; Pro(O-Bn) = Pro(4-R13), R13 = O-Bn; Pro(OBn) = Pro(4-R13), R13 = OBn; Chg = N[C@H](C(=O)O)C1CCCCC1; Acca = not defined here; Nva = CCC[C@H](N)C(=O)O
Response field label: string, one of MET (IC50 strictly below 2000 nM) or NOT MET.

Study these solved cases before continuing.
binder	label
Ac-D[dE]IVP[Nva] [Compound 128 (Table 1): Ac-Asp-D-Glu-Ile-Val-Pro-Nva]	NOT MET
Ac-D[dE][Chg]V[Pro(1-NpCH2O)][Acca] (reading uncertain) [Compound 215 (Table 2): Ac-Asp-D-Glu-Chg-Val-Pro(1-NpCH2O)-Acca]	MET
Ac-D[dE]IV[Pro(OBn)][(1R,2R)‑1‑amino‑2‑ethylcyclopropanecarboxylic acid] [Compound 517 (Table 5): Ac-Asp-D-Glu-Ile-Val-Pro(OBn)-P1(R14 Et; 1R, 2R)]	MET
Ac-D[dE]IV[Pro(OBn)][(1S,2S)‑1‑amino‑2‑ethylcyclopropanecarboxylic acid]-{NH‑(R)‑CHMePh} [Compound 1002 (Table 10): Ac-Asp-D-Glu-Ile-Val-Pro(OBn)-P1(R14 Et; 1S, 2S)-NH-(R)-CHMePh]	NOT MET

Prompt line: Dear colleague, could you confirm whether IC50 of D[dE]IV[Pro(O-Bn)][1‑amino‑2‑vinylcyclopropanecarboxylic acid] (not fully specified; also: further groups not given here) [Compound 636 (Table 6): P6 Asp, P5 D-Glu, P4 Ile, P3 Val, R13 O-Bn, R14 vinyl] falls below 2000 nM? Thanks.
Response line: MET
